tested on: SN12C; assay: NCI tumour cell line growth inhibition, 48 h
Activity calls are given as the source filed them. Rule as the data show it: active = GI50 up to about 1.1 µM and inactive = higher.
Your answer must be one of the following: 1 for active, 0 for inactive

These solved cases illustrate the format of a correct answer.
O=C(NO)C(=O)Nc1ccc(Cl)cc1[N+](=O)[O-]: 0
COC1=C(N)C(=O)c2nc(C)ccc2C1=O: 0
Cn1c(=O)n(C2(C)C[Se]C2)c2ccccc21: 0
NC(=O)c1ccc[n+](C2=C([N-]S(=O)(=O)c3ccccc3)C(=O)c3ccccc3C2=O)c1: 0

Challenge: Dear all, I need the recorded test outcome for CCOC(C)OCC#CCCBr (centres undefined) , thank you.
Response given: 0

Challenge: Status in this test for COC(=O)C(Cc1c[nH]c2ccccc12)NP(=O)(O)OCC1OC(n2cc(F)c(=O)[nH]c2=O)CC1O (centres undefined) ?
Response given: 0

====

system: A498; test: NCI tumour cell line growth inhibition, 48 h
Calls of active or inactive are those of the source. Rule as the data show it: active = GI50 up to about 1.1 µM and inactive = higher.
value-type: GI50

Challenge: Look up GI50 with A498 for this compound: CC(=O)c1ccc(NCN2C(=O)c3ccccc3C2=O)cc1
Response given: > 100 µM (inactive)

Challenge: Form field: GI50 recorded for CCN(CC)C(=O)CCN1CC1 with A498 (enter value)
Response given: > 10 µM (inactive)

Challenge: Missing value: GI50, A498, entry CCCN1CN(C(C(=O)N[C@@H]2C(=O)N3C(C(=O)O)=C(C)CSC23)c2ccccc2)CSC1=S (stereo partly specified) . Fill in?
Response given: > 100 µM (inactive)

====

tested on: T47D; assay: NCI tumour cell line growth inhibition, 48 h
Active and inactive are the calls of the source. Rule as the data show it: active = GI50 up to about 1.1 µM and inactive = higher.
Assign a class; possible classes are active, inactive

Example cases with answers are listed next.
O=[N+]([O-])c1ccc(-c2cn(-c3ccc(Cl)cc3)cn2)cc1: inactive
O=C(NCCCCNCCCNC(=O)C(F)(F)F)C(F)(F)F: inactive
NC12Oc3cc(O)cc(O)c3C1(c1ccc(Cl)cc1)c1c(O)cc(O)cc1O2 (stereo not given): inactive
C=C(CN(C)C)C(=O)c1ccccc1OC: inactive
O=C(/C=C\c1ccccc1-c1ccccc1)c1ccccc1: inactive

Challenge: Outcome logged for CC(=O)OCC1OC(n2cc(F)c(=O)[nH]c2=O)C(OC(C)=O)C1OC(C)=O (stereo not given) in this assay:
Response given: inactive

Challenge: Assay outcome for O=C1C=CN(C2OC(CO)C(O)C2O)C(=O)C1 (stereo not given) : what was it?
Response given: inactive

Challenge: Hello, I am checking results. What call was entered for C=C1C(=O)O[C@H]2C1C[C@H](O)[C@@]1(C)OC1CC[C@@]1(C)O[C@H]21 (stereo not given in full) ?
Response given: inactive

Challenge: I would be grateful if you could indicate the recorded call for CCCCCCCCCCCCCCCCOCC(Cl)CP(=O)(O)OP(=O)(O)OCC1OC(n2cnc3c(N)ncnc32)C(O)C1O (stereo not given) .
Response given: inactive

====

test system: MCF7; test: NCI tumour cell line growth inhibition, 48 h
Activity calls are given as the source filed them. Rule as the data show it: active = GI50 up to about 1.1 µM and inactive = higher. Starred links: 1 amine or outer side, 2 acyl side, 3 side chain; linkers in the order of their positions; H or OH if unused. Positions of bridges follow the written chain, without caps; N, C: chain ends. Non-standard residues stand in square brackets, D forms with d. Residues, ends and D or L forms follow the SMILES beside them. Chains are numbered I, II in the order given. Actinocin(9to1) = Cc1c2oc3c(C)ccc(C(=O)[*:1])c3nc-2c(C(=O)[*:2])c(N)c1=O; NMeV = CN[CH](C(=O)O)C(C)C; Sar = CNCC(=O)O
// allowed return values: t (active), f (inactive)

Record excerpt, results attached:
CCSC1=N/C(=C/c2ccccc2O)C(=O)N1: f
CN(C)CCCN1c2ccccc2CCc2cc([N+](=O)[O-])ccc21: f
NC12Oc3cc(O)cc(O)c3C1(c1ccc(Cl)cc1)c1c(O)cc(O)cc1O2 (stereo unspecified): f
Nc1ccc2c(=O)cc(-c3cccs3)[nH]c2n1: f
COC(=O)C(Cc1c[nH]c2ccccc12)NP(=O)(O)OCC1OC(n2cc(F)c(=O)[nH]c2=O)CC1O (stereo unspecified): f
CCCCCCCCCCCCCCCCOCC(Cl)CP(=O)(O)OP(=O)(O)OCC1OC(n2cnc3c(N)ncnc32)C(O)C1O (stereo unspecified): f
CCOC(=O)/C=C/c1nc(C#N)c(N)o1: f
Oc1cc(Cl)cc2cccnc12: t
O=C1c2cccnc2-c2nccc3c2c1nc1ccccc13 [ASCIDIDEMIN]: t
Cc1cc2c3c(ccc4[nH]cc(c43)CN2c2ccc(NS(C)(=O)=O)cc2)n1: f

Challenge: Please let me know the test result on file for Cc1ccc(CN2CCN(Cc3ccc(C)o3)C(C)C2)o1 (stereo unspecified) .
Response given: f

Challenge: Would you mind telling me which call this test gave O=CNCCCN1CCN(CCCNC=O)CC1 ?
Response given: f

Challenge: How did this test come out for CC1(C)OCC2OC3([C@@H]4OC(C)(C)O[C@H]4CO)OC(C)(C)OC3C2O1 (stereo partly specified) ?
Response given: f

Challenge: Which outcome was assigned to COc1cc2c(c(OC)c1)[C@H](C)N(Cc1ccccc1)C(C)C2 (stereo partly specified) in this test?
Response given: f

Challenge: Per the assay record, what outcome was assigned to Cc1c2oc3c(C)ccc(C(=O)NC4C(=O)NC(Cc5ccc(O)cc5)C(=O)N5CCCC5C(=O)N(C)CC(=O)N(C)C(C(C)C)C(=O)OC4C)c3nc-2c(C(=O)NC2C(=O)NC(Cc3ccc(O)cc3)C(=O)N3CCCC3C(=O)N(C)CC(=O)N(C)C(C(C)C)C(=O)OC2C)c(N)c1=O (stereo unspecified) (I: TYP[Sar][NMeV] / II: TYP[Sar][NMeV]; ester I:1-I:C, II:1-II:C; linker I:N-II:N via Actinocin(9to1); configuration not given here) ?
Response given: t

Challenge: Hello, I am checking results. What call was entered for Cc1ccc2c(O)cc(-c3ccc(Cl)cc3)nc2n1 ?
Response given: f

Challenge: Record lookup: outcome of this test for CC1CC(C)(O)CC(C(O)CC2CC(=O)NC(=O)C2)C1=O (stereo unspecified) [RESACTIN A] ?
Response given: t

Challenge: Short answer needed: outcome of this test for COc1ccc(/N=c2/oc3ccccc3cc2C(N)=O)cc1 ?
Response given: f

Challenge: Name the outcome recorded for O=C1CCC(NC(=O)c2ccccc2)C(=O)N1 (stereo unspecified) in the assay.
Response given: f

Challenge: Outcome? O=C1CC2(CCN(CC3COc4ccccc4O3)CC2)C(=O)N1N1CCCCCC1 (stereo unspecified)
Response given: f

Challenge: I would be grateful if you could indicate the recorded call for Cn1c(CO)ccc1-c1ccc(-c2ccc(CO)[se]2)[se]1 .
Response given: t

Challenge: Name the outcome recorded for CCOC(=O)C1=NNC(C(=O)c2ccccc2)C1c1ccccc1 (stereo unspecified) in the assay.
Response given: f

Challenge: Called result for CCOc1ccc2nc3cc(/N=N/c4ccc(N)nc4N)ccc3c(N)c2c1
Response given: f

The measurements presented in this section are drawn from ChEMBL document CHEMBL1201862.
